These entries and their values trace back to ChEMBL document CHEMBL5365447.

experiment: Chemical stability of the compound in phosphate buffer saline assessed as half life at pH 7.3 by HPLC analysis; type: physicochemical; conditions: phosphate buffered saline
Endpoint Name: half-life

Consider the reported half-life for these compounds:
Compound	half-life
CCCCCCCCCCCCCCCCCCOP(=O)(O)OP(=O)(O)OC[C@@H]1C=C[C@H](n2cc(C)c(=O)[nH]c2=O)O1.N.N	> 125 days
CCCCCCCCCCCCP(=O)(OCc1ccc(OC(=O)CCCC)cc1)OP(=O)(O)OC[C@@H]1C=C[C@H](n2cc(C)c(=O)[nH]c2=O)O1.N (some centres undefined)	29.2 days
CCCCCCCCCCCCP(=O)(OCc1ccc(OC(=O)CCCCCCCCCCC)cc1)OP(=O)(O)OC[C@@H]1C=C[C@H](n2cc(C)c(=O)[nH]c2=O)O1.N (some centres undefined)	> 83.3 days
CCCCCCCCCCCCCCCCCCOP(=O)(OCCCCCCCC)OP(=O)(O)OC[C@@H]1C=C[C@H](n2cc(C)c(=O)[nH]c2=O)O1.N (some centres undefined)	> 41.7 days
COP(=O)(O)OP(=O)(O)OC[C@@H]1C=C[C@H](n2cc(C)c(=O)[nH]c2=O)O1.N.N	> 125 days

Data request: Please list half-life recorded for the compound CCCCCCCCCCCCOP(=O)(OCc1ccc(OC(=O)CCCC)cc1)OP(=O)(O)OC[C@@H]1C=C[C@H](n2cc(C)c(=O)[nH]c2=O)O1.N (some centres undefined)
Data returned: 11.9 days

Data request: Specify reported half-life for the compound shown: CCCCCCCCCCCCP(=O)(O)OP(=O)(O)OC[C@@H]1C=C[C@H](n2cc(C)c(=O)[nH]c2=O)O1.N.N
Data returned: > 83.3 days

###

test: Chemical stability of the compound in phosphate buffer saline assessed as half life at pH 7.3 by HPLC analysis; type: physicochemical; conditions: phosphate buffered saline
Recorded measurements of half-life, one per entry
A bare number is not enough; add the unit after it.

Guide cases for half-life, answers given:
Molecule	half-life
CCCCOP(=O)(OCc1ccc(OC(=O)CCCC)cc1)OP(=O)(O)OC[C@@H]1C=C[C@H](n2cc(C)c(=O)[nH]c2=O)O1.N (stereo partly drawn)	5.46 days
CCCCCCCCCCCC(=O)Oc1ccc(COP(=O)(OCCCC)OP(=O)(O)OC[C@@H]2C=C[C@H](n3cc(C)c(=O)[nH]c3=O)O2)cc1.N (stereo partly drawn)	11.6 days

Now turn to the next molecule.
Data request: Please supply the value of reported half-life for the item CCCCCCCCCCCCCCCCCCOP(=O)(OCc1ccc(OC(=O)CCCC)cc1)OP(=O)(O)OC[C@@H]1C=C[C@H](n2cc(C)c(=O)[nH]c2=O)O1.N (stereo partly drawn)
Data returned: 16.9 days

###

test system: Human immunodeficiency virus 2; assay: Antiviral activity against HIV-2 ROD infected in thymidine kinase-deficient human CEM cells assessed as inhibition of virus-induced cytopathic effect incubated for 4 to 5 days by light microscopic analysis; assay type: functional, organism-based; conditions: Human immunodeficiency virus 2, ROD, CCRF-CEM
Endpoint Name: pEC50
Please note pEC50 is a logarithmic value: minus log10 of concentration in mol/L. Answer with that number alone.

Compound	Target Or System	pEC50
CCCCCCCCCCCCCCCCCCP(=O)(OCc1ccc(OC(=O)CCCC)cc1)OP(=O)(O)OC[C@@H]1C=C[C@H](n2cc(C)c(=O)[nH]c2=O)O1.N (some centres undefined)	Human immunodeficiency virus 2	8.70
CCCCCCCCCCCCCCCCCCOP(=O)(OC)OP(=O)(O)OP(=O)(O)OC[C@@H]1C=C[C@H](n2cc(C)c(=O)[nH]c2=O)O1.N.N (some centres undefined)	Human immunodeficiency virus 2	7.82
CCCCCCCCCCCCP(=O)(O)OP(=O)(O)OC[C@@H]1C=C[C@H](n2cc(C)c(=O)[nH]c2=O)O1.N.N	Human immunodeficiency virus 2	4.90

Then this compound:
Data request: Supply pEC50 value. Item: CCCCCCCCCCCCP(=O)(OCc1ccc(OC(=O)CCCC)cc1)OP(=O)(O)OC[C@@H]1C=C[C@H](n2cc(C)c(=O)[nH]c2=O)O1.N (some centres undefined)
Data returned: 6.12
